# Assay Target: Ileal sodium/bile acid cotransporter (Homo sapiens, UniProt Q12908)
# Sequence (Q12908 whole entry): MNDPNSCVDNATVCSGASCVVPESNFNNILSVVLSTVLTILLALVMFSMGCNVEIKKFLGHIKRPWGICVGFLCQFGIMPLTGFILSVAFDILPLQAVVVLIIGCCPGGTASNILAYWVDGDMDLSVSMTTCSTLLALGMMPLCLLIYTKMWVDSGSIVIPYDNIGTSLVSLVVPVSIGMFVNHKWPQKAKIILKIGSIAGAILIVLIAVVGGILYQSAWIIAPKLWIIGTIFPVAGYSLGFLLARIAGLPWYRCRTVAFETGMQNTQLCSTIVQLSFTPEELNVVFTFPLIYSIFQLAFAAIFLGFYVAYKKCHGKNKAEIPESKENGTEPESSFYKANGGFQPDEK
# Test Summary: In vitro inhibition of ASBT mediated uptake of [14C]taurocholate (5 uM) in baby hamster cells expressing human IBAT
Reported Property: IC50 (nM)
Numbers only, in nM.

The cases that follow already have their IC50 on record.
Compound: CCCCC1(CCCC)CS(=O)(=O)c2ccc(N(C)C)cc2[C@@H](c2ccc(OCc3cccc(CN(CC(=O)O)CC(=O)O)n3)cc2)[C@H]1O
Reported Property: IC50
Units Text: nM
Quantitative Readout: 4
//
Compound: CCCCC1(CCCC)CS(=O)(=O)c2ccc(N(C)C)cc2[C@@H](c2ccc(OCCOCC[N+]34CCN(CC3)CC4)cc2)[C@H]1O
Reported Property: IC50
Units Text: nM
Quantitative Readout: 8.5
//
Compound: CCCCC1(CCCC)CS(=O)(=O)c2ccc(N(C)C)cc2[C@@H](c2ccc(OCCOCCOCCN3CCCN(C)CCN(C)CCCN(C)CC3)c(F)c2)[C@H]1O
Reported Property: IC50
Units Text: nM
Quantitative Readout: 3
//
Compound: CCCCC1(CCCC)CS(=O)(=O)c2ccc(N(C)C)cc2[C@@H](c2ccc(OC)c(F)c2)[C@H]1O (racemic)
Reported Property: IC50
Units Text: nM
Quantitative Readout: 3.6

Would you be so kind as to report IC50 for each listed record?
1. CCCCC1(CCCC)CS(=O)(=O)c2ccc(N(C)C)cc2[C@@H](c2cccc(OCCCCC[N+](CC)(CC)CC)c2)[C@H]1O
2. CCCCC1(CCCC)CS(=O)(=O)c2ccc(N(C)C)cc2[C@@H](c2ccc(CN(CC)CC)cc2)[C@H]1O (racemic)

OUT:
2
930

IN: Would you mind telling me what IC50 value was observed for CCCCC1(CCCC)CS(=O)(=O)c2ccc(N(C)C)cc2[C@@H](c2cccc(C[N+](C)(C)C)c2)[C@H]1O ?
OUT: 67

---

Kindly state Activity for each of the entries shown.
# Test Summary: Amount (dissolved in aqueous Tween-80) in bile of rat was determined by fecal bile acid content for 45 min in a 37 degree C
# Type: ADME, tissue-based, Feces
# Design: concentration or dose not given beside the values
# Assay Context: in vivo, 0.75 h
Answers are plain numbers, in %.

Below: 4 compounds and their reported Activity.
Compound: CCCCC1(CCCC)CS(=O)(=O)c2ccc(N(C)C)cc2[C@@H](c2ccc(OCCCCC(=O)O)cc2)[C@H]1O
Units Text: %
Activity: 3.3

Compound: CCCCC1(CCCC)CS(=O)(=O)c2ccc(N(C)C)cc2[C@@H](c2ccc(OCC(=O)NCC(=O)O)cc2)[C@H]1O
Units Text: %
Activity: 7.14

Compound: CCCCC1(CCCC)CS(=O)(=O)c2ccc(N(C)C)cc2[C@@H](c2ccc(OCc3ccc(C[n+]4ccccc4)cc3)cc2)[C@H]1O
Units Text: %
Activity: 0.03

Compound: CCCCC1(CCCC)CS(=O)(=O)c2ccc(N(C)C)cc2[C@@H](c2ccc(OCCCCCN(CC(=O)O)CC(=O)O)cc2)[C@H]1O
Units Text: %
Activity: 0.24

Count: 5. Required value per item: Activity.
1. CCCCC1(CCCC)CS(=O)(=O)c2ccc(N(C)C)cc2[C@@H](c2ccc(OCc3ccc(C[N+]45CCN(CC4)CC5)cc3)cc2)[C@H]1O
2. CCCCC1(CCCC)CS(=O)(=O)c2ccc(N(C)C)cc2[C@@H](c2ccc(OCc3ccc(CN(CC(=O)O)CC(=O)O)cc3)cc2)[C@H]1O
3. CCCCC1(CCCC)CS(=O)(=O)c2ccc(N(C)C)cc2[C@@H](c2ccc(OCc3cccc(CN(CC(=O)O)CC(=O)O)n3)cc2)[C@H]1O
4. CCCCC1(CCCC)CS(=O)(=O)c2ccc(N(C)C)cc2[C@@H](c2ccc(OCCCC[N+]34CCN(CC3)CC4)cc2)[C@H]1O
5. CCCCC1(CCCC)CS(=O)(=O)c2ccc(N(C)C)cc2[C@@H](c2ccc(OCC(=O)O)cc2)[C@H]1O

OUT:
0.11
0.12
0.17
0.12
15.04

Quick one: give me Activity for each item below, same order please.
1. CCCCC1(CCCC)CS(=O)(=O)c2ccc(N(C)C)cc2[C@@H](c2ccc(OCCC[N+]34CCN(CC3)CC4)cc2)[C@H]1O
2. CCCCC1(CCCC)CS(=O)(=O)c2ccc(N(C)C)cc2[C@@H](c2ccc(OCc3cc[n+](C)cc3)cc2)[C@H]1O

OUT:
1: 0.21; 2: 0.03
